test: self-splicing fitness, log relative to wild type (ln ratio); higher = more splicing; Tetrahymena group I intron in knt gene, E. coli kanamycin selection, DiMSum; sequences stand for … in CUCUCU…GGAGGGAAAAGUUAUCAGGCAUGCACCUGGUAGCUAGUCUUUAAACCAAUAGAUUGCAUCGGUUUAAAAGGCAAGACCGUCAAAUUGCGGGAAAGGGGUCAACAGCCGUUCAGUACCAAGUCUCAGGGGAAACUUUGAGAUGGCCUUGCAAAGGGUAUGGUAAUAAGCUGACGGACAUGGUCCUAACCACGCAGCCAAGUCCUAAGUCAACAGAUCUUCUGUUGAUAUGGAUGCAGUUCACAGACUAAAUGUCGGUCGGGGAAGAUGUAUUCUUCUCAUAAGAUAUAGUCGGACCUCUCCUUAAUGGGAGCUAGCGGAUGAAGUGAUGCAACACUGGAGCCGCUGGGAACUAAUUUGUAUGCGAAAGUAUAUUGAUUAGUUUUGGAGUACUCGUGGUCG; details: 30 °C;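 also: selection with 25 µg/mL kanamycin versus none on LB agar overnight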
Property: self-splicing fitness (ln)
When you answer, write just the number.

Study these solved cases before continuing.
Sequence chain: AUAAAGCAAUAUUACGGACU
self-splicing fitness (ln): -0.0332

Sequence chain: UUAUAGCAAUAUUACGGCUA
self-splicing fitness (ln): -0.836

Sequence chain: CCGGAGCAAUAUUACGUGGU
self-splicing fitness (ln): -3.01

Sequence chain: CUUAAGCAAUAUUACGUGCC
self-splicing fitness (ln): -4.6

Sequence chain: GUCAAGCAAUAUUACGCUUU
self-splicing fitness (ln): -2.41

Fill in the blank: the reported self-splicing fitness (ln) of UUCUAGCAAUAUUACGAUUG is ____. -3.24

Fill in the blank: the reported self-splicing fitness (ln) of UGACAGCAAUAUUACGGAAU is ____. -4.15

Fill in the blank: the reported self-splicing fitness (ln) of UUGCAGCAAUAUUACGCUUU is ____. -2.64

Fill in the blank: the reported self-splicing fitness (ln) of UUUGAGCAAUAUUACGACGA is ____. -0.573

Fill in the blank: the reported self-splicing fitness (ln) of AGCCAGCAAUAUUACGUAAA is ____. -3.03

* * *

We begin with a simple list: items and their reported self-splicing fitness (ln).
test: self-splicing fitness, log relative to wild type (ln ratio); higher = more splicing; Tetrahymena group I intron in knt gene, E. coli kanamycin selection, DiMSum; sequences stand for … in CUCUCU…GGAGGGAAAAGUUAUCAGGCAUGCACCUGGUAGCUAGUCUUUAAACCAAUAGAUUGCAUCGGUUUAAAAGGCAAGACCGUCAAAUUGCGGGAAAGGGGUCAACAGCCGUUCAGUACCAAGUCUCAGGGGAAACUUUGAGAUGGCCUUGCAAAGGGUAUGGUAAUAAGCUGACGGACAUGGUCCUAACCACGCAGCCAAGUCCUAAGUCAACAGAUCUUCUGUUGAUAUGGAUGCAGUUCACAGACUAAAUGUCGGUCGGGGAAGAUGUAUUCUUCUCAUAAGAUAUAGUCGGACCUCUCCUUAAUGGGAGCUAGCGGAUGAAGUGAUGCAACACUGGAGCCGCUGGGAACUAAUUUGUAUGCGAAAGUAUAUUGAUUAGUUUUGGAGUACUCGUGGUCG; conditions: 30 °C
When you answer, write just the number.

Study these solved cases before continuing.
Sequence chain: AGACAGCAAUAUUACGUAUG
self-splicing fitness (ln): -3.13

Sequence chain: CGCCAGCAAUAUUACGUAAU
self-splicing fitness (ln): -2.67

Switching to the query record.
Fill in the blank: the reported self-splicing fitness (ln) of GGAAAGCAAUAUUACGCACU is ____. -1.35
